Biological target: Human FXR full length (Homo sapiens, UniProt Q96RI1)
Construct: Human FXR full length and RXR full length was obtained from Ronald Evans' laboratory; expressed in transfected cells; host or cells: CV-1 cells
Sequence (Q96RI1 1-476 isoform Q96RI1-1): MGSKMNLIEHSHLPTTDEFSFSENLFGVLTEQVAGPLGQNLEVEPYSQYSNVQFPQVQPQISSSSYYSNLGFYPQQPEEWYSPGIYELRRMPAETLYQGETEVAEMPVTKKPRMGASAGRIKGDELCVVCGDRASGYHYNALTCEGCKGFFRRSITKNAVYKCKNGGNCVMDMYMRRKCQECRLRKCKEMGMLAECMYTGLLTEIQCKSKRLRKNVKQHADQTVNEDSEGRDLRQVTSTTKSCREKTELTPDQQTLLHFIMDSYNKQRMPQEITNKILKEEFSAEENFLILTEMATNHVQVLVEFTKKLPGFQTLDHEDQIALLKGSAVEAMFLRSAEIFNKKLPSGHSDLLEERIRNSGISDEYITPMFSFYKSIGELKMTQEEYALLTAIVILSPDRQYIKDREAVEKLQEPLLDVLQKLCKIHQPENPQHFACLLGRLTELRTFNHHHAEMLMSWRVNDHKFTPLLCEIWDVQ
Sequence (P19793 1-462 partner): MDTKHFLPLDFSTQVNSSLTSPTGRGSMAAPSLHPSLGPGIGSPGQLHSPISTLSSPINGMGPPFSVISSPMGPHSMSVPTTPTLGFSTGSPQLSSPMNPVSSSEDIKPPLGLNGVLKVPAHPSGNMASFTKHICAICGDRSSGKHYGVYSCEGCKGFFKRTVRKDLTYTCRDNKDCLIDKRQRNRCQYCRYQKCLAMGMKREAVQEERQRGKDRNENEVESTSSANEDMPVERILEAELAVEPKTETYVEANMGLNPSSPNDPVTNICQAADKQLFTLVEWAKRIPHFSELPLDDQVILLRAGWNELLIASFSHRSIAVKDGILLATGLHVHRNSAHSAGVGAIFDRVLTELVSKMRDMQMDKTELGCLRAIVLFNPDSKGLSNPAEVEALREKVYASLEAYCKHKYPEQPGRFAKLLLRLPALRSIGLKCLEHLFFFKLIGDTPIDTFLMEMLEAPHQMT
Assay: FXR activity screen, luciferase reporter in transfected CV-1 cells
Assay type: cell-based
Settings: second round; CV-1 cells, 24 hours; read-out: 2nd RND EC50
ASSAY ENDPOINT: EC50 (nM)
One number for each entry, in nM.

These solved cases illustrate the format of a correct answer.
[2H]C(c1ccc(-c2ccc(N(C)C)cc2)cc1)N(C(=O)c1ccccc1)c1cccc(/C=C/C(=O)OC)c1 (stereo not drawn) [NSSK00048] | 357
COC(=O)/C=C/c1cncc(N(Cc2ccc(-c3ccc4c(cnn4C)c3)cc2F)C(=O)c2ccccc2)c1 [NSSK00061] | 10200
[2H]C(c1ccc(-c2ccc3c(cnn3C)c2)cc1Cl)N(C(=O)c1ccccc1)c1cc(F)cc(/C=C/C(=O)OC)c1 (stereo not drawn) [NSSK00041] | 1200

Respectfully, I request EC50 for each entry included below.
1. [2H]C(c1ccc(-c2ccc3c(cnn3C)c2)cc1)N(C(=O)c1ccccc1)c1cc(F)cc(/C=C/C(=O)OC)c1 (stereo not drawn) [NSSK00051]
2. COC(=O)/C=C/c1cccc(N(Cc2ccc(-c3ccc(N(C)C)cc3)cc2)C(=O)c2ccccc2)c1 [NSSK00053]

Marked response:
1: 5000; 2: 539
